The values you see were collected from PubChem BioAssay AID1963975.

- System: 624824-186-R-J2-PDC multicell spheroids, viability;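 also: spheroids exposed to agents for 7 days before viability read; 100% = DMSO vehicle treated spheroids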
- Method: Anticancer human tumor 624824-186-R-J2-PDC patient-derived colon adenocarcinoma cell line growth inhibition [PI3K]
- Reported Conditions: second compound 0.0316 µM; first compound 1 µM; hits give low values
- Text: Combinatorial screen of targeted agents with the PI3K inhibitors inavolisib, alpelisib, duvelisib, and copanlisib in multi-cell type tumor spheroids A high-throughput screen of multi-cell type tumor spheroids was designed to identify active combinations of targeted small molecules and PI3K pathway inhibitors. […] Compounds. […] If the clinical Cmax for an agent had not been determined, the highest concentration tested was 10 microM. […]
Property: viability, T/C

Task: I am curious: what viability, T/C value has been reported for Cn1nccc1Nc1nccc(-c2ccn(C(CO)c3ccc(Cl)c(F)c3)c(=O)c2)n1 (stereo unspecified) + CC(Nc1ncnc2nc[nH]c12)c1cc2cccc(Cl)c2c(=O)n1-c1ccccc1 ?
Output: 76.7%

Task: Request the reported viability, T/C associated with CC(C)NCC(C(=O)N1CCN(c2ncnc3c2C(C)CC3O)CC1)c1ccc(Cl)cc1 (stereo unspecified) + CC(Nc1ncnc2nc[nH]c12)c1cc2cccc(Cl)c2c(=O)n1-c1ccccc1
Output: 89.6%

Task: Suppose we examine the compound Cn1ncc(Cl)c1-c1cc(C(=O)NC(CN)Cc2cccc(F)c2)sc1Cl (stereo unspecified) + COc1c(OCCCN2CCOCC2)ccc2c3n(c(=NC(=O)c4cnc(N)nc4)nc12)CCN3 ; what viability, T/C value has been reported?
Output: 74%

Task: What does the record list as viability, T/C for C[C@@H](NC(=O)c1ncnc(N)c1Cl)c1ncc(C(=O)Nc2cc(C(F)(F)F)c(Cl)cn2)s1 + CC(Nc1ccc2c(c1)OCCn1cc(N3C(=O)OCC3C(F)F)nc1-2)C(N)=O ?
Output: 63.5%

Task: Which viability, T/C is listed for C=CC(=O)N1CCN(c2nc(=O)n(-c3c(C)ccnc3C(C)C)c3nc(-c4c(O)cccc4F)c(F)cc23)C(C)C1 (stereo unspecified) + COc1c(OCCCN2CCOCC2)ccc2c3n(c(=NC(=O)c4cnc(N)nc4)nc12)CCN3 ?
Output: 75.1%
